# System: SK-MEL-5 melanoma
# assay.procedure: NCI tumour cell line growth inhibition, 48 h
quantity.measured: TGI

Input O=C1OC(c2ccccc2)=N/C1=C\c1cc(Cl)ccc1Cl . Output TGI: > 100 µM

Memo: CN=C(N)/N=C(\N)Nc1cc2ccccc2c2ccccc12 , reported TGI: 30.6 µM

Entry COc1ccc(C(=O)C(C(=O)C(=O)NC2C3CC4CC(C3)CC2C4)c2ccc(OC)cc2)cc1 (stereo unspecified) , TGI reported as > 100 µM

The recorded TGI for entry CC1(C)N=C(N)N=C(N)N1c1cccc(CCCCOc2ccccc2)c1 equals 5.29 µM

TGI in this record for CCC(CCN)(CCN)[N+](=O)[O-] : > 100 µM

For reference, reported TGI for CC1(C)CCCCCCC2CC2CCCCCC(C)(C)C1=O (stereo unspecified) stands at > 100 µM
